- MEASURED TARGET: Nuclear receptor subfamily 5 group A member 2 (Homo sapiens, UniProt O00482)
- Sequence (O00482 whole entry): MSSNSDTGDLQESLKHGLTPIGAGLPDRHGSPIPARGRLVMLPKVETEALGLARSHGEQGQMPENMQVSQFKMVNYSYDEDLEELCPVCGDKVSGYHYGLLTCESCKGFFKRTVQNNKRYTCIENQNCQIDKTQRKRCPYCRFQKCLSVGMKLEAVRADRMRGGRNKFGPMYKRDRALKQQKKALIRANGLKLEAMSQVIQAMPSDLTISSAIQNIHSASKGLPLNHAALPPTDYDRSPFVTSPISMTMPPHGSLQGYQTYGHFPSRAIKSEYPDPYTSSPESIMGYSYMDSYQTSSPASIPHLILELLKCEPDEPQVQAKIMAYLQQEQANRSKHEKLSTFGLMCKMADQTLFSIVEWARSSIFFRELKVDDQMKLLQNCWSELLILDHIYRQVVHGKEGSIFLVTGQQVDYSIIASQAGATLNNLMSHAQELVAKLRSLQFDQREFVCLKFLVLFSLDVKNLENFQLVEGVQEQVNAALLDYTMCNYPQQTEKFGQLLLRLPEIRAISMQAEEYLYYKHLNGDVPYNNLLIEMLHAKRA
- ASSAY OVERVIEW: Binding affinity to human LRH1 by FRET-based peptide recruitment assay
pEC50: −log10 of the molar value.

# COMPOUND, COMPARISON OPERATOR, pEC50
measured = [
    ("CCCCCCC1=C(c2ccccc2)[C@]2(Nc3ccc(C(C)(C)C)cc3)CCC[C@@H]2C1 (relative stereo)", "<", 5.00),
    ("CCCCCCC1=C(c2ccccc2)[C@]2(Nc3cccc(C)c3C)CCC[C@@H]2C1 (relative stereo)", "=", 7.52),
    ("CCCCCCCCC(C)C1=C(c2ccccc2)[C@]2(Nc3ccccc3)CCC[C@@H]2C1 (relative stereo)", "=", 6.49),
    ("CCCCC/C=C(\\CCCCC)C1=C(c2ccccc2)[C@]2(Nc3ccccc3)CCC[C@@H]2C1 (relative stereo)", "<", 5.00),
    ("CCC/C=C(\\CCC)C1=C(c2ccccc2)[C@]2(Nc3ccccc3)CCC[C@@H]2C1 (relative stereo)", "=", 6.37),
    ("CCC/C=C(\\CCC)C1=C(C2CCCCC2)[C@]2(Nc3ccccc3)CCC[C@@H]2C1 (relative stereo)", "=", 7.92),
    ("CCCCCCCCCCCCC1=C(c2ccccc2)[C@]2(Nc3ccccc3)CCC[C@@H]2C1 (relative stereo)", "<", 5.00),
    ("CC1=C(c2ccccc2)[C@]2(Nc3ccccc3)CCC[C@@H]2C1 (relative stereo)", "=", 5.68),
    ("CCC/C=C(\\CCC)C1=C(c2ccc3ccccc3c2)[C@]2(Nc3ccccc3)CCC[C@@H]2C1 (relative stereo)", "=", 7.22),
    ("CCCCCCC1=C(c2ccccc2)[C@]2(Nc3ccc(I)cc3)CCC[C@@H]2C1 (relative stereo)", "<", 5.00),
    ("CCC/C=C(\\CCC)C1=C(C)[C@]2(Nc3ccccc3)CCC[C@@H]2C1", "=", 7.05),
    ("CCCCCCC1=C(c2ccccc2)[C@]2(Nc3ccc(Cl)cc3)CCC[C@@H]2C1 (relative stereo)", "=", 6.00),
    ("CCC/C=C(\\CCC)C1=C(c2cccc(OC)c2)[C@]2(Nc3ccccc3)CCC[C@@H]2C1 (relative stereo)", "=", 7.00),
    ("CCCCCCC1=C(c2ccccc2)[C@]2(Nc3ccccc3)CCC[C@@H]2C1 (relative stereo)", "=", 7.47),
    ("c1ccc(N[C@@]23CCC[C@@H]2CC(C2CCCCC2)=C3c2ccccc2)cc1 (relative stereo)", "=", 6.64),
]

----------
// reported pEC50 per item
- MEASURED TARGET: Nuclear receptor subfamily 5 group A member 2 (Homo sapiens, UniProt O00482)
- ASSAY OVERVIEW: Binding affinity to human LRH1 by FRET-based peptide recruitment assay
pEC50: −log10 of the molar value.

# COMPOUND, COMPARISON OPERATOR, pEC50
data = [
    ("CCC/C=C(\\CCC)C1=C(c2ccc(Br)cc2)[C@]2(Nc3ccccc3)CCC[C@@H]2C1 (relative stereo)", "=", 6.80),
    ("CCC/C=C(\\CCC)C1=C(CCCC)[C@]2(Nc3ccccc3)CCC[C@@H]2C1 (relative stereo)", "=", 7.66),
    ("CC/C=C(\\CC)C1=C(c2ccccc2)[C@]2(Nc3ccccc3)CCC[C@@H]2C1 (relative stereo)", "=", 5.85),
    ("CCCCCCC1=C(c2ccccc2)[C@]2(Nc3cccc4ccccc34)CCC[C@@H]2C1 (relative stereo)", "=", 5.92),
    ("CCCCCCC1=C(c2ccccc2)[C@]2(Nc3cccc(F)c3)CCC[C@@H]2C1 (relative stereo)", "=", 6.48),
    ("c1ccc(N[C@@]23CCC[C@@H]2CC(c2ccccc2)=C3c2ccccc2)cc1 (relative stereo)", "=", 6.82),
    ("CCCCC(C)C1=C(c2ccccc2)[C@]2(Nc3ccccc3)CCC[C@@H]2C1 (relative stereo)", "=", 7.15),
    ("CCCCCCC1=C(c2ccccc2)[C@]2(Nc3ccc(OC(F)(F)F)cc3)CCC[C@@H]2C1 (relative stereo)", "<", 5.00),
]
